Please provide measured Mean plasma drug concentration for the entries that follow.
- Assay comment: in vivo
- Settings: male, SD, rat, po, 5 mg/kg, 8 h
- Procedure: 12 male SD rats were divided into 4 groups with 3 SD rats in each group. […] […] Each rat with oral administration was collected for whole blood samples which were prepared into plasma 15, 30 min and 1, 2, 4, 8, 24 h continuously after administration.
Form entry: value (nM) — number only.

What value of Mean plasma drug concentration has been recorded for this entry: CCCCOc1nc(N)c2[nH]cc(Cc3ccc(CN4CCCC4)cc3)c2n1 23.9

What value of Mean plasma drug concentration has been recorded for this entry: CCCCOc1nc(N)c2c(n1)N(Cc1cccc(CN3CCCC3)c1)CC(=O)N2 [GS-9620, reference compound] 9.49
